Cited source for all entries: patent US8865623B2

Measured pest or weed control at 250 g/ha of individual entries
- System: Echinochloa crus-galli (ECHCG)
- ASSAY SUMMARY: Pre-emergence herbicidal activity, glasshouse pot test
- Assay type: in vivo
- REPORTED CONDITIONS: Echinochloa crus-galli, 312 h; Rate 250 g/ha; pre-emergence spray; evaluated after 13 days; read-out: Pre-emergence activity ECHCG (100=total damage to plant; 0=no damage to plant)
Record the value in %, omitting the unit from your answer.

Query: Give recorded pest or weed control at 250 g/ha with Echinochloa crus-galli (ECHCG) for the following molecule: CCc1ccc(Oc2ccc(F)cc2)cc1C1=C(O)C(C)(C)OC(C)(C)C1=O [Example A-22]
Response: 80

* * *

- System: Alopecurus myosuroides (ALOMY)
- ASSAY SUMMARY: Pre-emergence herbicidal activity, glasshouse pot test
- Type: in vivo
- REPORTED CONDITIONS: Alopecurus myosuroides, 312 h; Rate 250 g/ha; pre-emergence spray; evaluated after 13 days; read-out: Pre-emergence activity ALOMY (100=total damage to plant; 0=no damage to plant)
MEASURED PARAMETER: pest or weed control at 250 g/ha (%)
Provide the reading as a plain figure in %.

{"SMILES STRING": "CCc1ccc(Oc2ccc(Cl)cc2F)cc1C1=C(O)CCCC1=O", "pest or weed control at 250 g/ha / %": 50}

Please turn your attention to the following entry.
Query: Suppose we examine the molecule CCc1ccc(Oc2cccc(Br)c2)cc1C1=C(O)[C@H]2CC[C@H](C2)C1=O ; what pest or weed control at 250 g/ha value has been reported?
Response: 0

* * *

- System: Alopecurus myosuroides (ALOMY)
- ASSAY SUMMARY: Post-emergence herbicidal activity, glasshouse pot test
- Format: in vivo
- REPORTED CONDITIONS: Alopecurus myosuroides, 312 h, rate 250 g/ha, evaluated after 13 days, glasshouse, read-out: Post-emergence activity ALOMY (100=total damage to plant; 0=no damage to plant)
MEASURED PARAMETER: pest or weed control at 250 g/ha (%)
Report as a plain number; the unit % is understood.

{"SMILES STRING": "CC1(C)OC(C)(C)C(O)=C(c2cc(Oc3ccc(Cl)cc3Cl)ccc2C2CC2)C1=O", "READOUT NUMBER": 80}

Query: Sample CCc1ccc(Oc2ccc(Cl)cc2Cl)cc1C1=C(O)CC2(CCOCC2)CC1=O — what was its pest or weed control at 250 g/ha?
Response: 80

Query: Report pest or weed control at 250 g/ha for CCc1ccc(Oc2ccc(C(F)(F)F)cc2C#N)cc1C1=C(O)C(C)(C)OC(C)(C)C1=O please.
Response: 80

* * *

Each entry below carries its recorded pest or weed control at 250 g/ha.
- Tested on: Echinochloa crus-galli (ECHCG)
- ASSAY SUMMARY: Pre-emergence herbicidal activity, glasshouse pot test
- Type: in vivo
- REPORTED CONDITIONS: Echinochloa crus-galli, 312 h; Rate 250 g/ha; pre-emergence spray; evaluated after 13 days; read-out: Pre-emergence activity ECHCG (100=total damage to plant; 0=no damage to plant)
The answer is to be given in %; state only the numeric part.

{"SMILES STRING": "CCc1ccc(Oc2cccc(Br)c2)cc1C1=C(O)C(C)(C)OC(C)(C)C1=O", "READOUT NUMBER": 90}
{"SMILES STRING": "CCc1ccc(Oc2ccc(C#N)c(Cl)c2)cc1C1=C(O)CC(C)(C)CC1=O", "READOUT NUMBER": 100}
{"SMILES STRING": "CCc1ccc(Oc2ccc(Cl)cc2F)cc1C1=C(O)CC(C)(C)CC1=O", "READOUT NUMBER": 80}
{"SMILES STRING": "CCc1ccc(Oc2ccc3cc(Br)ccc3n2)cc1C1=C(O)C(C)(C)OC(C)(C)C1=O", "READOUT NUMBER": 80}
{"SMILES STRING": "CCc1ccc(Oc2ccc(C(F)(F)F)c(Cl)c2)cc1C1=C(O)C(C)(C)OC(C)(C)C1=O", "READOUT NUMBER": 90}

Query: Recorded pest or weed control at 250 g/ha of CCc1ccc(Oc2ccc(C(F)(F)F)cc2Cl)cc1C1=C(O)CC2(CCOCC2)CC1=O , please.
Response: 100

Query: Sample CCc1ccc(Oc2cc(F)c(C#N)c(F)c2)cc1C1=C(O)C(C)(C)OC(C)(C)C1=O — what was its pest or weed control at 250 g/ha?
Response: 70

Query: What pest or weed control at 250 g/ha value was documented for this molecule, CCc1ccc(Oc2ccc(Cl)c(F)c2)cc1C1=C(O)C(C)(C)OC(C)(C)C1=O ?
Response: 100

Query: Item under review: CCc1ccc(Oc2ccc(F)cc2)cc1C1=C(O)CCCC1=O . Reported pest or weed control at 250 g/ha?
Response: 40

Query: Any idea what its pest or weed control at 250 g/ha is? The molecule is CCc1ccc(Oc2ncc(C(F)(F)F)cc2F)cc1C1=C(O)C(C)(C)OC(C)(C)C1=O
Response: 100

* * *

Each record here notes measured pest or weed control at 250 g/ha.
- Tested on: Alopecurus myosuroides (ALOMY)
- ASSAY SUMMARY: Post-emergence herbicidal activity, glasshouse pot test
- Type: in vivo
- REPORTED CONDITIONS: Alopecurus myosuroides, 312 h, rate 250 g/ha, evaluated after 13 days, glasshouse, read-out: Post-emergence activity ALOMY (100=total damage to plant; 0=no damage to plant)
Numeric only. Scale: %

{"COMPOUND": "CC1(C)OC(C)(C)C(O)=C(c2cc(Oc3cnc4cc(Cl)ccc4n3)ccc2C2CC2)C1=O", "SYSTEM UNDER TEST": "Alopecurus myosuroides (ALOMY)", "U": "%", "pest or weed control at 250 g/ha": 100}

Query: Missing value: pest or weed control at 250 g/ha, Alopecurus myosuroides (ALOMY), entry CCc1ccc(Oc2ccc([N+](=O)[O-])cc2Cl)cc1C1=C(O)C(C)(C)OC(C)(C)C1=O . Fill in?
Response: 60

Query: # query: pest or weed control at 250 g/ha | item CCc1ccc(Oc2nc3ccc(C(F)(F)F)cc3s2)cc1C1=C(O)C(C)(C)OC(C)(C)C1=O | system: Alopecurus myosuroides (ALOMY)
Response: 90

Query: Param readout = pest or weed control at 250 g/ha; param system = Alopecurus myosuroides (ALOMY); param query = CCc1ccc(Oc2ccc(Cl)cc2F)cc1C1=C(O)[C@@H]2CC[C@](C)(C1=O)C2(C)C (single isomer, unassigned) ; response: value
Response: 60

Query: Checklist item: pest or weed control at 250 g/ha tested on Alopecurus myosuroides (ALOMY), entry CCc1ccc(Oc2cnc3cc(Cl)ccc3n2)cc1C1=C(O)CC2(CCOCC2)CC1=O , value?
Response: 100

Query: Fill in the recorded pest or weed control at 250 g/ha for this compound, with Alopecurus myosuroides (ALOMY) as test system: CCc1ccc(Oc2cccc(F)c2F)cc1C1=C(O)C(C)(C)OC(C)(C)C1=O
Response: 0

Query: Provide value of pest or weed control at 250 g/ha for this record tested with Alopecurus myosuroides (ALOMY): CCc1ccc(Oc2nc3ccccc3s2)cc1C1=C(O)C(C)(C)OC(C)(C)C1=O
Response: 90

Query: # value lookup — system Alopecurus myosuroides (ALOMY), readout pest or weed control at 250 g/ha, item CCc1ccc(Oc2ncccc2C(F)(F)F)cc1C1=C(O)C(C)(C)OC(C)(C)C1=O
Response: 20

Query: Missing value: pest or weed control at 250 g/ha, Alopecurus myosuroides (ALOMY), entry CCc1ccc(Oc2ccc(F)c(Cl)c2)cc1C1=C(O)C(C)(C)OC(C)(C)C1=O . Fill in?
Response: 70

* * *

- Tested on: Alopecurus myosuroides (ALOMY)
- ASSAY SUMMARY: Pre-emergence herbicidal activity, glasshouse pot test
- Type: in vivo
- REPORTED CONDITIONS: Alopecurus myosuroides, 312 h; Rate 250 g/ha; pre-emergence spray; evaluated after 13 days; read-out: Pre-emergence activity ALOMY (100=total damage to plant; 0=no damage to plant)
pest or weed control at 250 g/ha by entry:
Provide the reading as a plain figure in %.

{"SMILES STRING": "CCc1ccc(Oc2nc3ccc(OC)cc3s2)cc1C1=C(O)[C@H]2CC[C@H](C2)C1=O", "pest or weed control at 250 g/ha, %": 50}
{"SMILES STRING": "CCc1ccc(Oc2nc3ccc(OC)cc3s2)cc1C1=C(O)C(C)(C)OC(C)(C)C1=O", "pest or weed control at 250 g/ha, %": 50}
{"SMILES STRING": "CCc1ccc(Oc2ncc(C(F)(F)F)cc2C(F)(F)F)cc1C1=C(O)C(C)(C)OC(C)(C)C1=O", "pest or weed control at 250 g/ha, %": 50}
{"SMILES STRING": "CCc1ccc(Oc2ccc(Br)cc2C#N)cc1C1=C(O)C(C)(C)OC(C)(C)C1=O", "pest or weed control at 250 g/ha, %": 0}
{"SMILES STRING": "CCc1ccc(Oc2nc(C)c(Cl)c(N)n2)cc1C1=C(O)C(C)(C)OC(C)(C)C1=O", "pest or weed control at 250 g/ha, %": 30}

// next entry
Query: State the recorded pest or weed control at 250 g/ha for this entry: CCc1ccc(Oc2ccc(F)cc2F)cc1C1=C(O)CC(C)(C)CC1=O
Response: 50
